The following compounds are shown together with reported MIC values.
# Test system: Escherichia coli
# assayProtocol: Antimicrobial activity against Escherichia coli after 72 hrs by microdilution method
# Format: functional
Where a SMILES comes first, the peptide text is derived from it. The star is where a group is joined. X1 = Fc1ccc2c(C3CCN(*)CC3)noc2c1
Lab book: enter the figure in µg/mL, no units written.

Example entries begin here.
compound="CC(C)[C@H](NC(=O)CN)C(=O)NCC(=O)N[C@H](C(=O)N1CCC[C@H]1C(=O)N1CCC(c2noc3cc(F)ccc23)CC1)C(C)C.O=C(O)C(F)(F)F (H-GVGVP-X1)" experimentalvalue=11
compound=N[C@@H](Cc1ccc(O)cc1)C(=O)N1CCC(c2noc3cc(F)ccc23)CC1.O=C(O)C(F)(F)F experimentalvalue=40
compound="NCC(=O)N[C@@H](Cc1ccccc1)C(=O)NCC(=O)N[C@@H](Cc1ccccc1)C(=O)N1CCC[C@H]1C(=O)N1CCC(c2noc3cc(F)ccc23)CC1.O=C(O)C(F)(F)F (H-GFGFP-X1)" experimentalvalue=8

Which MIC value belongs to NCC(=O)NCC(=O)N[C@@H](Cc1ccccc1)C(=O)N1CCC[C@H]1C(=O)N1CCC(c2noc3cc(F)ccc23)CC1.O=C(O)C(F)(F)F (H-GGFP-X1) ?
14

Which MIC value belongs to CC1(C)S[C@@H]2[C@H](NC(=O)[C@H](N)c3ccc(O)cc3)C(=O)N2[C@H]1C(=O)O ?
24

Which MIC value belongs to C[C@H](NC(=O)CNC(=O)CN)C(=O)N1CCC[C@H]1C(=O)N1CCC(c2noc3cc(F)ccc23)CC1.O=C(O)C(F)(F)F (H-GGAP-X1) ?
17

Which MIC value belongs to CC[C@@H](C)[C@H](NC(=O)CNC(=O)CN)C(=O)N1CCC[C@H]1C(=O)N1CCC(c2noc3cc(F)ccc23)CC1.O=C(O)C(F)(F)F ?
15

Which MIC value belongs to N[C@@H](Cc1c[nH]c2ccccc12)C(=O)N1CCC(c2noc3cc(F)ccc23)CC1.O=C(O)C(F)(F)F ?
38

Which MIC value belongs to N[C@@H](Cc1ccccc1)C(=O)N1CCC(c2noc3cc(F)ccc23)CC1.O=C(O)C(F)(F)F ?
20
